# System: SR leukemia
# EXPERIMENT_DESCRIPTION: NCI tumour cell line growth inhibition, 48 h; in the data active = GI50 below about 0.43 µM; inactive = the rest
Outcome codes: yes (1) = active, no (0) = inactive

COMPOUND | ASSIGNED_CATEGORY
OCC1OC(n2cnc3c(NCc4ccccc4O)ncnc32)C(O)C1O (stereo not drawn) | yes (1)
CCN(CC)CCCNc1cc(OC)c(OC)c2cccnc12 | no (0)
CC(=O)/C=C/c1ccc(N(CCO)Cc2ccc(C(C)(C)C)cc2)cc1 | no (0)
Cc1ccc(C2C3Cc4ccccc4C3=NN2c2ccc(S(=O)(=O)NC(=O)Nc3ccccc3)cc2)cc1 (stereo not drawn) | no (0)
Cc1ccc(NC2=CC(=O)C(=O)c3ccccc32)cc1 | no (0)
CC(=N\O)/C(C)=N/O.CC(=N\O)/C(C)=N/O.[Fe].[NH2-].c1c[nH]cn1 | no (0)
Nc1cc(N)c2nc(-c3ccccc3)c(NCc3ccc(Cl)c(Cl)c3)nc2c1 | no (0)
N[C@H]1CCN(c2c(F)cc3c(=O)c(C(=O)O)cn4c3c2Oc2c-4ccc3c2ccc2ccccc23)C1 | yes (1)
O=C(CCl)Nc1ccc(Cc2ccc(NC(=O)CCl)cc2)cc1 | no (0)
C1=C\CCCCN2CC[C@H]3[C@H](CCCC/C=C\CCCN4C[C@@H](CCCCC/1)C[C@@H]3C4)C2 | no (0)
COc1cc(/C=C/c2ccnc3ccccc23)cc(OC)c1OC | no (0)
CCS(=O)(=O)N1CCN(c2ccc(Nc3ncc(C(N)=O)c(NC4CC4)n3)cc2)CC1 | no (0)
Nc1nc(N)c(-c2ccc(Cl)c(Cl)c2)c(CP(Cl)(Cl)(Cl)Br)n1 | no (0)
